test-details: Timed organ biodistribution of [^64Cu]Cu-DOTATATE by ex vivo gamma counting
Type: in vivo, mice
assay-conditions: mouse, bladder, intravenous, 1.85 MBq, total radioactivity; female Apoe^-/- mice 12 weeks on Western Diet, 30 min after injection, median (IQR), N=3-8; read-out: Tissue radioactivity, bladder
Experimental: Wild-type and atherosclerotic animals were injected with approximately 1.85 MBq of [^64Cu]Cu-DOTATATE and euthanized at either 1, 5, 15, 30, 60 or 120 min after injection (Supplementary Fig. S1A) to evaluate the tracer’s biodistribution. […] Values were corrected for decay and normalized to tissue weight to express radioactivity concentration as percentage injected dose per gram (%ID/g). […] Plasma (supernatant) and cells (pellet) were gamma counted and expressed as percentage of total activity. […]
parameter: tissue uptake at 0.5 h (%ID/g)
# value in %ID/g; strip the unit string

Exam item: Supply measured tissue uptake at 0.5 h of C[C@@H](O)[C@H](NC(=O)[C@@H]1CSSC[C@H](NC(=O)[C@@H](Cc2ccccc2)NC(=O)CN2CCN(CC(=O)O)CCN(CC(=O)O)CCN(CC(=O)O)CC2)C(=O)N[C@@H](Cc2ccc(O)cc2)C(=O)N[C@H](Cc2c[nH]c3ccccc23)C(=O)N[C@@H](CCCCN)C(=O)N[C@@H]([C@@H](C)O)C(=O)N1)C(=O)O [[^64Cu]Cu-DOTATATE, metal not drawn] in your reply.
Marked response: 2.9
